- target desc: GST-Bcl-2 (Homo sapiens (Human))
- Sequence (P10415 whole entry): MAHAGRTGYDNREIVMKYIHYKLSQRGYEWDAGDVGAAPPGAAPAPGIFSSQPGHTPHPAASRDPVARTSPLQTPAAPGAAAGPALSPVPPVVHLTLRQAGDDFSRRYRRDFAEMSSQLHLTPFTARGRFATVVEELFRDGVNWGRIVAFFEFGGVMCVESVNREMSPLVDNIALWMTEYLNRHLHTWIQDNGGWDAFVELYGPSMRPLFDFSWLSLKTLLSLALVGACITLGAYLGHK
- experiment notes: Time Resolved-Fluorescence Resonance Energy Transfer (TR-FRET) Bcl-2 binding assay
- stated conditions: GST-Bcl-2 1 nM, F-Bak peptide probe 100 nM, Tb-anti-GST antibody 1 nM; Ki by Wang's equation
pKi: −log10 of the molar value.
Threshold rule: pKi greater than or equal to 9 is class 1; below that, class 0.

INSERT INTO measurements (input_smiles, class_assignment) VALUES
  ('CC1(C)CCC(CN2CCN(c3ccc(C(=O)NS(=O)(=O)c4ccc(NCC5(N)CCOCC5)c([N+](=O)[O-])c4)c(Oc4cccc(Cl)c4)c3)CC2)=C(c2ccc(Cl)cc2)C1', 'class 1'),
  ('O=C(NS(=O)(=O)c1ccc(NCC2CCOCC2)c([N+](=O)[O-])c1)c1ccc(N2CCN(Cc3ccccc3-c3ccc(Cl)cc3)CC2)cc1Oc1ccc(-n2ccnc2)cc1', 'class 0');

Threshold query (pKi >= 9) on CC1(C)CCC(CN2CCN(c3ccc(C(=O)NS(=O)(=O)c4ccc(NCC5CCOCC5)c([N+](=O)[O-])c4)c(Oc4ccc(NS(C)(=O)=O)nc4)c3)CC2)=C(c2ccc(Cl)cc2)C1
class 0

Does pKi meet or surpass 9 for O=C(NS(=O)(=O)c1ccc(NCC2CCOCC2)c([N+](=O)[O-])c1)c1ccc(N2CCN(Cc3ccccc3-c3ccc(Cl)cc3)CC2)cc1Oc1ccc(Cl)cc1 ?
class 0

Is pKi at least 9? Consider O=C(NS(=O)(=O)c1ccc(NCC2CCOCC2)c([N+](=O)[O-])c1)c1ccc(N2CCN(Cc3ccccc3-c3ccc(Cl)cc3)CC2)cc1Oc1ccc(OCc2ccccc2)cc1
class 0

Kindly determine if pKi recorded for CC1(C)CCC(CN2CCN(c3ccc(C(=O)NS(=O)(=O)c4ccc(NCC5CCOCC5)c([N+](=O)[O-])c4)c(Oc4cccc5c4CCN(C(=O)OC(C)(C)C)C5)c3)CC2)=C(c2ccc(Cl)cc2)C1 is above or exactly 9.
class 0

Does the compound CN1CCC(Nc2ccc(S(=O)(=O)NC(=O)c3ccc(N4CCN(CC5=C(c6ccc(Cl)cc6)CC(C)(C)CC5)CC4)cc3Oc3cccc(Cl)c3Cl)cc2[N+](=O)[O-])CC1 have recorded pKi that is 9 or more?
class 1

Evaluate CC1(C)CCC(CN2CCN(c3ccc(C(=O)NS(=O)(=O)c4ccc(NCC5CCC(F)(F)CC5)c([N+](=O)[O-])c4)c(Oc4cnc(N)c(Cl)c4)c3)CC2)=C(c2ccc(Cl)cc2)C1 : pKi at minimum 9?
class 1
